src = patent US20240270821A1

Target: hGIPR (Homo sapiens, UniProt P48546)
Sequence (P48546 22-466): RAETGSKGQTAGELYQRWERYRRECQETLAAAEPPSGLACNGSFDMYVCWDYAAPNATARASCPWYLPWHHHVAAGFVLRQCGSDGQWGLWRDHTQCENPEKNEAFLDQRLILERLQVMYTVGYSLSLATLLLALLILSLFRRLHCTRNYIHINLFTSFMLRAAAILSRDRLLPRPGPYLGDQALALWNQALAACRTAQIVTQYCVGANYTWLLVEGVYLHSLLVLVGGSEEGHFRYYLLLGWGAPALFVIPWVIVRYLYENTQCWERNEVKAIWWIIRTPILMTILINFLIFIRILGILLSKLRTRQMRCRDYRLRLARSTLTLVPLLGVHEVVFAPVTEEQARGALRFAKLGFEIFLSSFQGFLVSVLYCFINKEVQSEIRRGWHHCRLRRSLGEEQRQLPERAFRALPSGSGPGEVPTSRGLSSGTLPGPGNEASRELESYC
Assay: Functional cAMP activation in the presence of 0.1% casein (no HSA);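 also: intracellular cAMP rise after 30 min at 37 °C read by HTRF against a standard curve, scaled between buffer alone (0%) and top control ligand concentration (100%), four-parameter fit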
Type: cell-based
Conditions: read-out: Relative cAMP EC50, hGIPR
Starred links: 1 amine or outer side, 2 acyl side, 3 side chain; linkers in the order of their positions; H or OH if unused. Non-standard residues stand in square brackets, D forms with d. Groups on a side chain read outwards from the residue. No end group written: not given here. *: point of attachment. C18 diacid = O=C(O)CCCCCCCCCCCCCCCCC(=O)*; αMePhe(2-F) = C[C@](N)(Cc1ccccc1F)C(=O)O; γGlu = O=C(O)[C@H](CCC(=O)[*:2])N[*:1]; αMe4Pal = C[C@](N)(Cc1ccncc1)C(=O)O; αMeY = C[C@](N)(Cc1ccc(O)cc1)C(=O)O; 4Pal = N[C@@H](Cc1ccncc1)C(=O)O; αMeL = CC(C)C[C@](C)(N)C(=O)O; αMeS = C[C@](N)(CO)C(=O)O; Orn = NCCC[C@H](N)C(=O)O; AEEA = NCCOCCOCC(=O)O; Aib = CC(C)(N)C(=O)O
Assign pEC50 to each entry below.
pEC50 here: minus log base 10 of the concentration, concentration in moles per litre.

Query: Return reported pEC50; argument: Y[Aib]QGT[αMePhe(2-F)]TSD[4Pal][αMeS]I[αMeL]LD[Orn]K([AEEA-γGlu-C18 diacid])AQ[Aib][Orn]FI[dE][αMeY]LIEGGPSSGAPEPSEG-NH2 [Example 429]
Response: 10.85

Query: Return reported pEC50; argument: Y[Aib]QGT[αMePhe(2-F)]TSD[4Pal][αMeS]I[αMeL]LE[Orn]K([AEEA-γGlu-C18 diacid])AQ[αMe4Pal]EFI[dE][αMeY]LVEGGPSSGAPPPSGS-NH2 [Example 768]
Response: 10.53

Query: Return reported pEC50; argument: H-Y[Aib]QGT[αMePhe(2-F)]TSD[4Pal][αMeS]I[αMeL]LD[Orn]K([AEEA-γGlu-C18 diacid])AQ[Aib]NFIEYLIEGGPSSGEPPPEGE-NH2 [Example 483]
Response: 10.88

Query: Return reported pEC50; argument: H-Y[Aib]QGT[αMePhe(2-F)]TSD[4Pal][αMeS]I[αMeL]LD[Orn]K([γGlu-γGlu-C18 diacid])AQ[Aib][Orn]FI[dE][αMeY]LSEGGPSSGEPPPSGTEEE-NH2 [Example 562]
Response: 9.55

Query: Return reported pEC50; argument: H-Y[Aib]QGT[αMePhe(2-F)]TSD[4Pal][αMeS]I[αMeL]LD[Orn]K([AEEA-γGlu-C18 diacid])AQ[Aib][Orn]FIEYLIEAGPSSGEPPPEEG-NH2 [Example 484]
Response: 10.82

====

Assign EC50 to each entry below.
Molecular target: hGcgR (Homo sapiens, UniProt P47871)
Sequence (P47871 26-477): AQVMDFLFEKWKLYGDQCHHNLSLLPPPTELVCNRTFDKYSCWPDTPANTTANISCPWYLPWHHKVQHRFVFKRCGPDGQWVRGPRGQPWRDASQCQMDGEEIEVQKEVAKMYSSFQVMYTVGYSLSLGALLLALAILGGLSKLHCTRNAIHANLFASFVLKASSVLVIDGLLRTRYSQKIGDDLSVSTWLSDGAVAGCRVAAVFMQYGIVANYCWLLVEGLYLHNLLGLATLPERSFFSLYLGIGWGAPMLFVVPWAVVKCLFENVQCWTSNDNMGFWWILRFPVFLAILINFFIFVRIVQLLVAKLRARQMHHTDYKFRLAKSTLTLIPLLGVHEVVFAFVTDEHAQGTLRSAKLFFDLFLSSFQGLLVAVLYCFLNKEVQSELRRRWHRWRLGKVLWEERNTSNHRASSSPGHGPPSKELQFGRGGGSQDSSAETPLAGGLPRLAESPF
Assay: Functional cAMP activation in the presence of 0.1% casein (no HSA);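 also: intracellular cAMP rise after 30 min at 37 °C, read by HTRF against a cAMP standard curve, scaled from buffer only (0%) to maximal control ligand response (100%)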
Format: cell-based
Conditions: in the presence of 0.1% casein (no HSA); geometric mean; read-out: Relative cAMP EC50, hGcgR
Starred links: 1 amine or outer side, 2 acyl side, 3 side chain; linkers in the order of their positions; H or OH if unused. Non-standard residues stand in square brackets, D forms with d. Groups on a side chain read outwards from the residue. No end group written: not given here. *: point of attachment. C18 diacid = O=C(O)CCCCCCCCCCCCCCCCC(=O)*; γGlu = O=C(O)[C@H](CCC(=O)[*:2])N[*:1]; αMe4Pal = C[C@](N)(Cc1ccncc1)C(=O)O; 4Pal = N[C@@H](Cc1ccncc1)C(=O)O; αMeL = CC(C)C[C@](C)(N)C(=O)O; Orn = NCCC[C@H](N)C(=O)O; Dab = NCC[C@H](N)C(=O)O; AEEA = NCCOCCOCC(=O)O; Aib = CC(C)(N)C(=O)O
Numbers only here, please. The scale is nM.

Query: Return reported EC50; argument: H-Y[Aib]QGTFTSD[4Pal]S[Orn][αMeL]LD[Orn]K([γGlu-γGlu-C18 diacid])AQ[αMe4Pal]AFIE[αMe4Pal]LIE[Aib]GPSSGEPPPSGS-NH2 [Example 991]
Response: 3.03

Query: Return reported EC50; argument: Y[Aib]QGTFTSD[4Pal]S[Orn][αMeL]LDKK([γGlu-γGlu-C18 diacid])AQ[αMe4Pal]AFIE[αMe4Pal]LIE[Aib]GPSSGEPPPSGS-NH2 [Example 989]
Response: 2.27

Query: Return reported EC50; argument: H-Y[Aib]QGTFTSDFS[Orn][αMeL]LDKK([γGlu-AEEA-γGlu-C18 diacid])AQ[Aib]AFIEYLLE[Aib]GESSGAPPPSGS-NH2 [Example 244]
Response: 4.81

Query: Return reported EC50; argument: H-Y[Aib]QGTFTSD[4Pal]SQ[αMeL]LDKK([AEEA-γGlu-C18 diacid])AQ[αMe4Pal]AFIEYLIE[Aib]GPSSGAPPPSGSEEE-NH2 [Example 898]
Response: 3.39

Query: Return reported EC50; argument: Y[Aib]QGTFTSD[4Pal]SQ[αMeL]LDKK([dE-γGlu-C18 diacid])AQ[αMe4Pal]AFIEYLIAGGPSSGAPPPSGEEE-NH2 [Example 1088]
Response: 14.8

Query: Return reported EC50; argument: H-Y[Aib]QGTFTSD[4Pal]S[Dab][αMeL]LDKK([AEEA-γGlu-C18 diacid])AQ[Aib]AFIEYLIE[Aib]GPSSGAPPPSGS-NH2 [Example 803]
Response: 9.75
